Target: T1, human Gal3 protein (recombinant human Galectin-3) (human, UniProt P17931 2-250)
T1 construct: also called hGal3; hGAL3
T1 sequence (P17931 2-250 limits assumed): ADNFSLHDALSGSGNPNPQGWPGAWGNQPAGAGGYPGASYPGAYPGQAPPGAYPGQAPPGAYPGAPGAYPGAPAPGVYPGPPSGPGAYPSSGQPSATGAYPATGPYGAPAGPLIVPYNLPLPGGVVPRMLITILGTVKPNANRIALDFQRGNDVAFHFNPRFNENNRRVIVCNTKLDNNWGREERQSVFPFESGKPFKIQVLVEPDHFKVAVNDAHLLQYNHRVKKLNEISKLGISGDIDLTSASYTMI
Assay: SPR (Carterra LSA), antibody immobilised on HC200M chip, hGal3 injected
quantity: binding result

binder | result
846.2B11 (antibody, human IgG4 S228P, kappa, V domains shown) VH: QVQLQQSGPELVRPGALVKISCKASGYTFTSYDINWVKQRPGQGLEWIGWIYPGDGSTKYNEKFKGKATLTADKSSSTAYMQLSSLTSENSAVYFCAREAASNAMDYWGQGTSVTVSS VL: DIVLTQSPASLGVSLGQRATISCRASKSVSTSGYSYMHWYQQKPGQPPKLLIYLASILESGVPARFSGSGSGTDFTLNIHPVEEEDAAIYYCQHSRELPLTFGAGTKLELKR | no binding
847.21B11 (antibody, V domains shown) VH: QVQLKQSGPGLVAPSQSLSITCTVSGFSLTSYGVHWVRQPPGKGLEWLGIIWAGGSTNYNPALMSRLSISKDKSKSQVFLKMNSLKTDDTAMYYCARDRASLLRPGAMDYWGQGTSVTVSS VL: DIVMTQSQKFMSTSVGDRVSVTCKASQNVGINVAWYQQKPGQSPKALIYSASYRYSGVPDRFTGSGSGTDFTLTISNVQSEDLAEYFCQQYNSYPYTFGGGTKLEMK | no binding
846T.4C9 (antibody, V domains shown) VH: EVQLQQSGPELVKPGASVKMSCKASGYSFTNYIMHWVKQKPGQGLEWIGYINPYNDGTKYNEKFKGKATLTSDKSSSTAYMELSSLTSEDSAVYYCARLLFYYAMDYWGQGTSVTVSS VL: DILMTQTPSSMSVSLGDTVSITCHASQGISSNIGWLQQKPRKSFKGLIYYGTNLEDGVPSRFSGSGSGADYSLTISSLESEDFADYYCVQYDQFPWTFGGGTKLEIK | no binding

Values from patent US20250243282A1
